SYSTEM NAME: T1, his-tagged human CDH6 extracellular region protein (hCDH6 ECD-his) (human, UniProt P55285 19-615)
T1 construct: also called Human CDH6-his; hCDH6-his; not shown: his tag
T1 sequence: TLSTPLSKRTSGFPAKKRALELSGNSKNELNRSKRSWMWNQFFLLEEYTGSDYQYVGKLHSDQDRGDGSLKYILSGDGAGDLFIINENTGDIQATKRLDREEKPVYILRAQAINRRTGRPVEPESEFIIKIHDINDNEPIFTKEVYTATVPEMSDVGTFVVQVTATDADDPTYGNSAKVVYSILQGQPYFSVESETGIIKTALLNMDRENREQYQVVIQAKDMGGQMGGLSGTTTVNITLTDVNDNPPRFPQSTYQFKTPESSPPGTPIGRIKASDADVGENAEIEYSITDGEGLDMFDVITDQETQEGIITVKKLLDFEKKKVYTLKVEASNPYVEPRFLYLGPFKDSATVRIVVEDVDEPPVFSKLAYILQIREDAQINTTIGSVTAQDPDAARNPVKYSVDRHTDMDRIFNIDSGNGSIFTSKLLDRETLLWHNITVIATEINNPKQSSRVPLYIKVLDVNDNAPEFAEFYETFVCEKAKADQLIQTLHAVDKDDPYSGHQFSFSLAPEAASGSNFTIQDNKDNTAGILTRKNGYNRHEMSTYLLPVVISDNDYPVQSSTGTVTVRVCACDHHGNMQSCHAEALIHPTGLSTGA
METHOD NOTES: SPR Biacore, antibody captured on Protein A
QUANTITY KIND: kon (M⁻¹ s⁻¹)
Output spec: scalar in M⁻¹ s⁻¹, unitless text.

BINDER	RESULT UNITS	kon
hCDH6-6-H2L2 (antibody, V domains shown, Humanized) VH: EVQLVQSGAEVKKPGASVKVSCKASGYTFTDYYMAWVRQAPGQGLEWMGYIFPNSGGTDYSQKFKGRVTLTVDKSTSTVYMELSSLRSEDTAVYYCARELGADYGDYYAMDHWGQGTTVTVSS VL: DIQMTQSPSSLSASVGDRVTITCRASENIDSYLAWYQQKPGKSPKLLVYSATLLADGVPSRFSGSGSGTDYTLTISSLQPEDFATYYCQHYYRTPPTFGQGTKLEIK	M⁻¹ s⁻¹	52100

Give the measured kon of hCDH6-6-H1L2 (antibody, V domains shown, Humanized) VH: EVQLVQSGAEVKKPGASVKVSCKASGYTFTDYYMAWVRQAPGQGLEWMGYIFPNSGGTDYSQKFKGRVTMTVDKSTSTVYMELSSLRSEDTAVYYCARELGADYGDYYAMDHWGQGTTVTVSS VL: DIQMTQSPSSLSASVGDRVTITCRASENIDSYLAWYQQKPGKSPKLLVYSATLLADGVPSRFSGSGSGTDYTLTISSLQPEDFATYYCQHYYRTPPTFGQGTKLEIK .
44100

// next record hCDH6-6-H2L1 (antibody, V domains shown, Humanized) VH: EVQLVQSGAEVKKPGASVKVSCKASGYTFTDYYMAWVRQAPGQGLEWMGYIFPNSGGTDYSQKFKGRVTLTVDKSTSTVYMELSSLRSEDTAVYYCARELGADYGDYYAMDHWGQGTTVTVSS VL: DIQMTQSPSSLSASVGDRVTITCRASENIDSYLAWYQQKPGKSPKLLLYSATLLADGVPSRFSGSGSGTDYTLTISSLQPEDFATYYCQHYYRTPPTFGQGTKLEIK
46200

// next record CHI-CDH6-6 (antibody, human IgG1, kappa, V domains shown, also called CHI-hCDH6-6; chimeric antibody of murine CDH6-6) VH: EVQLQQSGPELVKPGDSVKMSCKASGYTFTDYYMAWVRQSHRKSLEWIGYIFPNSGGTDYSQKFKGKATLTVDKSSSTVYMELHSLTSEDSAVYYCARELGADYGDYYAMDHWGQGTSVSVSS VL: DIQMTQSPASLSASVGETVTITCRASENIDSYLAWYQQKQGKSPQLLVYSATLLADGVPSRFSGSGSGTQYSLKINSLKSEDVARYYCQHYYRTPPTFGSGTKLEIKR
48700
